Measured Tefflux50 accompanies every entry in the list below.
- test_target: AcrB efflux pump in E. coli BW25113 (Escherichia coli, UniProt P31224)
- Construct: endogenous in cells; host or cells: E. coli BW25113 (wild type)
- Sequence (P0AE06 25-397): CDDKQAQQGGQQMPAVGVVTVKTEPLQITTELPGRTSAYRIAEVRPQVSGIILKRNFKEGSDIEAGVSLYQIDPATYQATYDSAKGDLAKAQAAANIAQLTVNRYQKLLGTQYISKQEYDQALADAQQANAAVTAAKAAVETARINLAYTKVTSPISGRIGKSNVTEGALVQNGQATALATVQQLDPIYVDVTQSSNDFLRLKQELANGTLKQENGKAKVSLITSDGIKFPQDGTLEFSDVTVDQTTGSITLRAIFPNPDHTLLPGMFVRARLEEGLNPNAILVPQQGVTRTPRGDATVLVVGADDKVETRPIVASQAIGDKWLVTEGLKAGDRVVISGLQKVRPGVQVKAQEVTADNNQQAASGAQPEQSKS
- Sequence (P31224 whole entry): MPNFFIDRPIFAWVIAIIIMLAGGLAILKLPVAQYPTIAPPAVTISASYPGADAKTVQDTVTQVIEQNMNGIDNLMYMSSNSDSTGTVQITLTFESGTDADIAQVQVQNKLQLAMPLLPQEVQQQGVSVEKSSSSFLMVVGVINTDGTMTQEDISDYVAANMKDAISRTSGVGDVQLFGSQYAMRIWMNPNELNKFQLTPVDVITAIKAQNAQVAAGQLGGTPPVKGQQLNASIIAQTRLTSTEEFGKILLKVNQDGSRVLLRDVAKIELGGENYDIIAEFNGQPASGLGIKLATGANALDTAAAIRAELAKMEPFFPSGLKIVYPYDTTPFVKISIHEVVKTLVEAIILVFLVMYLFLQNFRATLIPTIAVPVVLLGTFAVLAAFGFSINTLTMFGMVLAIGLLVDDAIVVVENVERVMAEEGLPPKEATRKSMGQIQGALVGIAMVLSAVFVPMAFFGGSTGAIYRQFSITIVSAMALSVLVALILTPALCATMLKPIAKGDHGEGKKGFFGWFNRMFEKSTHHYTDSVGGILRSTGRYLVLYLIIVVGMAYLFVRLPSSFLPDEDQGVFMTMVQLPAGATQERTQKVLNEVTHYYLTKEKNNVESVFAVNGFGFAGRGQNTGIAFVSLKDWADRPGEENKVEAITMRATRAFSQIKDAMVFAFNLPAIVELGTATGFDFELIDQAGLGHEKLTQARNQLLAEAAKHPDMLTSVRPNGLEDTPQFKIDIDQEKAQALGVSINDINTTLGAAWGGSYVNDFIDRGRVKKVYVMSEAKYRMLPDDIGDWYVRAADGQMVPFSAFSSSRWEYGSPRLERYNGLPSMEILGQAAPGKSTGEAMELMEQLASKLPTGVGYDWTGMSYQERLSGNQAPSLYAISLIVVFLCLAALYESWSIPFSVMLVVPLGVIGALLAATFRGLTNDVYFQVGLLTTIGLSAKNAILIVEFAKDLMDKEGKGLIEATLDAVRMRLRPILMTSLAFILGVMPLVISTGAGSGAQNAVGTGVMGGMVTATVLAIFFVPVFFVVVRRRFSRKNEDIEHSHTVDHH
- Sequence (P02930 23-493, further chain): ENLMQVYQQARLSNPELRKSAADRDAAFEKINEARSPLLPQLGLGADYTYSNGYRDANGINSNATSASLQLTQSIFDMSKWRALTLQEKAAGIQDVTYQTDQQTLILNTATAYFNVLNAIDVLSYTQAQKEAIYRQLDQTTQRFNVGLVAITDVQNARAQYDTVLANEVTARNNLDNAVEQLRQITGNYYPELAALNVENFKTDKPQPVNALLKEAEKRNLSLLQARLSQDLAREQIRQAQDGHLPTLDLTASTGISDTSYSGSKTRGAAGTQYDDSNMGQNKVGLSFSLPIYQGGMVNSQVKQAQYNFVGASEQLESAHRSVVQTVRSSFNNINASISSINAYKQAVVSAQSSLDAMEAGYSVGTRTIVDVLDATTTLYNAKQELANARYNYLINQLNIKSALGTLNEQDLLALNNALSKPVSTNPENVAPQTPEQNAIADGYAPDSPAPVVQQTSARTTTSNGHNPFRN
- test_summary: Nile red efflux assay (whole-cell competition)
- Assay type: cell-based
- assay_context: 27µM compound
property_label: Tefflux50 (s)

[[record]]
cpd_smiles = "Cc1sc(NC(=O)c2ccc([N+](=O)[O-])s2)nc1-c1ccccc1"
unit_text = "s"
test_value = 200

[[record]]
cpd_smiles = "O=C(Nc1nc(-c2ccc(F)cc2)cs1)c1ccc([N+](=O)[O-])s1"
unit_text = "s"
test_value = 81.24

[[record]]
cpd_smiles = "O=C(Nc1nc(-c2ccc(F)cc2F)cs1)c1ccc([N+](=O)[O-])s1"
unit_text = "s"
test_value = 67.98

[[record]]
cpd_smiles = "COc1cc(-c2csc(NC(=O)c3ccc([N+](=O)[O-])s3)n2)ccc1Cl"
unit_text = "s"
test_value = 72.65


Numbers sourced from paper PMC5940854.
